# measured-on: CDK2/Cyclin E1 (Homo sapiens)
# Construct: purchased 14-475
# measurement-description: Caliper Assay (LabChip EZ Reader mobility shift assay), inhibition of CDK2/Cyclin E1 activity
# Type: biochemical
# measurement-conditions: 2.5 nM CDK2/Cyclin E1(14-475), 100 μM ATP, 30 min preincubation; read-out: Caliper Assay (CDK2/CCNE1): IC50
measured-parameter: IC50

Write down the reported IC50 (system: CDK2/Cyclin E1 (Homo sapiens)) of CC1(C)C[C@@H]1C(=O)N1CC2(CN(C(=O)c3cncs3)CC2c2nnc(Cc3cccc(C4CCOCC4)n3)o2)C1 (stereo partly shown)
0.1 to 1 µM

Retrieve IC50 on CDK2/Cyclin E1 (Homo sapiens); query Cc1cc(C)n(C(C)c2nnc(C3CN(C(=O)c4cnn(Cc5ccccc5)c4)CC34CN(C(=O)[C@H]3CC3(C)C)C4)o2)n1 (stereo partly shown)
0.1 to 1 µM

Under CDK2/Cyclin E1 (Homo sapiens): report IC50 of O=C(c1cncs1)N1CC(c2nnc(Cc3ccc(Cl)c(Cl)c3)o2)C2(C1)CN(c1ncc(C(F)(F)F)cn1)C2 (stereo not shown) .
> 10 µM

Recall the reported IC50 of CC(c1nc(C2CN(C(=O)c3cncs3)CC23CN(C(=O)[C@H]2CC2(C)C)C3)no1)n1nc(Cl)cc1Cl (stereo partly shown) on CDK2/Cyclin E1 (Homo sapiens) and write it down.
1 to 10 µM

Determine reported IC50 for O=C(c1cncs1)N1CC(c2nnc(C(F)(F)c3ccc(Cl)c(Cl)c3)o2)C2(C1)CN(c1ncccn1)C2 (stereo not shown) ; test system: CDK2/Cyclin E1 (Homo sapiens).
> 10 µM

// output IC50; input CC1(C)C[C@@H]1C(=O)N1CC2(CN(C(=O)c3ncccn3)CC2c2nnc(C(F)(F)c3ccc(Cl)c(Cl)c3)o2)C1 (stereo partly shown) ; system CDK2/Cyclin E1 (Homo sapiens)
> 10 µM

Given O=C(c1cncs1)N1CC(c2nnc(C(F)(F)c3ccc(Cl)c(Cl)c3)o2)C2(C1)CN(c1ccccn1)C2 (stereo not shown) , report its IC50 on CDK2/Cyclin E1 (Homo sapiens).
> 10 µM

###

# measured-on: CDK2/Cyclin E1 (Homo sapiens, UniProt P24941)
# Construct: purchased 14-475
# measurement-description: Caliper Assay (LabChip EZ Reader mobility shift assay), inhibition of CDK2/Cyclin E1 activity
# Type: biochemical
# measurement-conditions: 2.5 nM CDK2/Cyclin E1(14-475), 100 μM ATP, 30 min preincubation; read-out: Caliper Assay (CDK2/CCNE1): IC50
measured-parameter: IC50

Specify measured IC50 for CC(=O)N1CC(c2nnc(C(F)(F)c3ccc(Cl)c(Cl)c3)o2)C2(C1)CN(C(=O)[C@H]1CC1(C)C)C2 (some centres unmarked) .
> 10 µM

Fill in reported IC50 for this entry: CC1(C)C[C@@H]1C(=O)N1CC2(C1)CN(c1ncnc3ncsc13)CC2c1nnc(Cc2cccc(C3CCOCC3)n2)o1 (some centres unmarked)
> 10 µM

Return reported IC50. Input compound: O=C(c1nccnc1O)N1CC(c2nnc(C(F)(F)c3ccc(Cl)c(Cl)c3)o2)C2(CN(CC3CCCO3)C2)C1 (centres unmarked)
> 100 µM

Provide only the value of recorded IC50 for CC1(C)C[C@@H]1C(=O)N1CC2(CN(C(=O)c3cnc(C(F)(F)F)s3)CC2c2nnc(C(F)(F)c3ccc(Cl)c(Cl)c3)o2)C1 (some centres unmarked)
> 10 µM

Give the value of IC50 reported for the following: O=C(c1onc2ccccc12)N1CC(c2nnc(C(F)(F)c3ccc(Cl)c(Cl)c3)o2)C2(C1)CN(C(=O)[C@H]1CC1(F)F)C2 (single isomer, unassigned) [I-151 1st]
> 10 µM

Give reported IC50 value for CC(c1nc(C2CN(C(=O)c3cncs3)CC23CN(C(=O)[C@H]2CC2(C)C)C3)no1)n1ncc2ccccc21 (some centres unmarked)
1 to 10 µM

Read off the recorded IC50 for CC1(C)C[C@@H]1C(=O)N1CC2(CN(C(=O)c3cncs3)CC2c2nnc(C(F)(F)c3ccc(F)c(F)c3)o2)C1 (some centres unmarked)
0.1 to 1 µM

Please give the documented IC50 of CC1(C)C[C@@H]1C(=O)N1CC2(CN(C(=O)c3cnn(Cc4ccccc4)c3)CC2c2nnc(CC3CCC(F)(F)CC3)o2)C1 (some centres unmarked)
1 to 10 µM

Tell us which IC50 value is on record for CCOc1cc(C)nn1C(C)c1nc(C2CN(C(=O)c3cncs3)CC23CN(C(=O)[C@H]2CC2(C)C)C3)no1 (some centres unmarked)
1 to 10 µM

Kindly indicate its recorded IC50. Item: CC1(C)C[C@@H]1C(=O)N1CC2(CN(C(=O)c3cncs3)CC2c2nnc(C3(c4cccc(C5CCOCC5)n4)COC3)o2)C1 (some centres unmarked)
0.1 to 1 µM

Read off the recorded IC50 for CC(C)=CC(=O)N1CC2(C1)CN(C(=O)c1cncs1)CC2c1nnc(C(F)(F)c2ccc(Cl)c(Cl)c2)o1 (centres unmarked)
> 10 µM

Assign IC50 to the following record: O=C(C#CCO)N1CC(c2nnc(C(F)(F)c3ccc(Cl)c(Cl)c3)o2)C2(C1)CN(C(=O)[C@H]1CC1(F)F)C2 (some centres unmarked)
> 10 µM

Recall and state the measured IC50 for CC(c1coc(C2CCCC2)n1)c1nc(C2CN(C(=O)c3cncs3)CC23CN(C(=O)[C@H]2CC2(C)C)C3)no1 (some centres unmarked) .
0.1 to 1 µM

Answer with the recorded IC50 for the compound listed here: CC1(C)C[C@@H]1C(=O)N1CC2(C1)CN(c1cccc3ncsc13)CC2c1nnc(C(F)(F)c2ccc(Cl)c(Cl)c2)o1 (some centres unmarked)
> 10 µM
